Experimental target: Aldo-keto reductase family 1 member B1 (Homo sapiens)
Test details: Inhibitory activity against human placental aldose reductase
Readout kind: IC50 (µM)

[[record]]
compound = "C[C@@H]1C[C@@](O)(CC(=O)O)c2cc(F)ccc2O1"
readout_kind = "IC50"
readout_unit = "µM"
result = 0.2

[[record]]
compound = "C[C@@H]1COc2ccc(F)cc2[C@]1(O)CC(=O)O"
readout_kind = "IC50"
readout_unit = "µM"
result = 11

[[record]]
compound = "C[C@@H]1C[C@@](O)(CC(=O)O)c2cc([N+](=O)[O-])c(F)cc2O1"
readout_kind = "IC50"
readout_unit = "µM"
result = 0.07

[[record]]
compound = "O=C(O)C[C@@]1(O)c2cc(F)ccc2O[C@@H]2CCCC[C@@H]21"
readout_kind = "IC50"
readout_unit = "µM"
result = 11

[[record]]
compound = "Cc1cc(Cl)cc2c1O[C@H](C)C[C@@]2(O)CC(=O)O"
readout_kind = "IC50"
readout_unit = "µM"
result = 1.18

[[record]]
compound = "COc1ccc2c(c1)[C@](O)(CC(=O)O)C[C@@H](C)O2"
readout_kind = "IC50"
readout_unit = "µM"
result = 281

[[record]]
compound = "C[C@@H]1[C@@H](C)Oc2ccc(F)cc2[C@]1(O)CC(=O)O"
readout_kind = "IC50"
readout_unit = "µM"
result = 29.4

[[record]]
compound = "CCC[C@@H]1C[C@@](O)(CC(=O)O)c2cc(F)ccc2O1"
readout_kind = "IC50"
readout_unit = "µM"
result = 0.97

[[record]]
compound = "C[C@@H]1C[C@@](O)(CC(=O)O)C2=C(C=CCC2(C)[N+](=O)[O-])O1 (stereo not given in full)"
readout_kind = "IC50"
readout_unit = "µM"
result = 1.63

[[record]]
compound = "C[C@@H]1C[C@@](O)(CC(=O)O)c2cc(Br)cc(Cl)c2O1"
readout_kind = "IC50"
readout_unit = "µM"
result = 5.16


###

Experimental target: Aldo-keto reductase family 1 member B1 (Homo sapiens)
Test details: ARI(aldose reductase inhibitor) enantiospecificity against human placental aldose reductase.
Readout kind: IC50

[[record]]
molecule = "C[C@@H]1C[C@@](O)(CC(=O)O)c2cc(Cl)c(Cl)cc2O1"
result = "5.62 µM"

[[record]]
molecule = "C[C@@H]1C[C@@](O)(CC(=O)O)c2cc(F)c(Cl)cc2O1 (stereo in doubt; 60)"
result = "0.0455 µM"

[[record]]
molecule = "C[C@@H]1C[C@@](O)(CC(=O)O)c2cc(F)c(Cl)cc2O1 (stereo in doubt; 23)"
result = "0.0493 µM"


###

Experimental target: Aldo-keto reductase family 1 member B1 (Homo sapiens, UniProt P15121)
Test details: Inhibitory activity against human placental aldose reductase
pIC50: −log10 of the molar value.
pIC50 vs 6: at or above is TRUE, below is FALSE.

[[record]]
compound_smiles = "COc1cc2c(cc1Cl)[C@](O)(CC(=O)O)C[C@@H](C)O2"
label = "TRUE"

[[record]]
compound_smiles = "C[C@@H]1C[C@@](O)(CC(=O)O)c2cc(Cl)c3ccccc3c2O1"
label = "TRUE"

[[record]]
compound_smiles = "O=C(O)C[C@]1(O)C[C@@H](c2ccccc2)Oc2ccc(F)cc21"
label = "FALSE"

[[record]]
compound_smiles = "CCc1cc2c(cc1Cl)[C@](O)(CC(=O)O)C[C@@H](C)O2"
label = "TRUE"


###

Experimental target: Aldo-keto reductase family 1 member B1 (Homo sapiens)
Test details: Inhibitory activity against human placental aldose reductase
pIC50: −log10 of the molar value.
pIC50 vs 6: at or above is rule met, below is rule not met.

[[record]]
compound_smiles = "CC(C)(C)[C@@H]1C[C@@](O)(CC(=O)O)c2cc(F)ccc2O1"
label = "rule met"

[[record]]
compound_smiles = "C[C@@H]1C[C@@](O)(CC(=O)O)c2cc([N+](=O)[O-])ccc2O1"
label = "rule met"

[[record]]
compound_smiles = "C[C@@H]1C[C@@](O)(CC(=O)O)c2cccc(Cl)c2O1"
label = "rule not met"

[[record]]
compound_smiles = "CC1(C)C[C@@](O)(CC(=O)O)c2cc([N+](=O)[O-])ccc2O1"
label = "rule met"

[[record]]
compound_smiles = "CC[C@@H]1C[C@@](O)(CC(=O)O)c2cc(F)ccc2O1"
label = "rule met"

[[record]]
compound_smiles = "C[C@@H]1C[C@@](O)(CC(=O)O)c2cc(F)c(F)cc2O1"
label = "rule met"

[[record]]
compound_smiles = "Cc1ccc2c(c1)[C@](O)(CC(=O)O)C[C@@H](C)O2"
label = "rule not met"

